Here the recorded MC4R selectivity vs MC3R is given for each entry.
- target.or.test.system: human MC4R receptor (human, UniProt P32245 1-332)
- Sequence (P32245 whole entry): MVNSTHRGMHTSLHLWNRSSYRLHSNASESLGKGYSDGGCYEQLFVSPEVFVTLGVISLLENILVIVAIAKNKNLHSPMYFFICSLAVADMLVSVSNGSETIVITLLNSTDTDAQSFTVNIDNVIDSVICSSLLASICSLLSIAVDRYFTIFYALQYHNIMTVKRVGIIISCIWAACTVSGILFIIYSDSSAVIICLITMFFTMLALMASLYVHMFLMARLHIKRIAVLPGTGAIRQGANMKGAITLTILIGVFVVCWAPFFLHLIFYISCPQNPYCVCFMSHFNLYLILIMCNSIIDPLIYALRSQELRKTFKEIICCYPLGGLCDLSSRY
- assay.procedure: cell-based or functional assay
Positions of bridges follow the written chain, without caps; N, C: chain ends. Non-standard residues stand in square brackets, D forms with d. 1Nal = N[C@@H](Cc1cccc2ccccc12)C(=O)O; Cit = NC(=O)NCCC[C@H](N)C(=O)O; Nle = CCCC[C@H](N)C(=O)O; Aib = CC(C)(N)C(=O)O

binder: Ac-R[Nle]CH[1Nal]RWC-NH2 (disulfide 3-8; SMILES CCCC[C@H](NC(=O)[C@H](CCCNC(=N)N)NC(C)=O)C(=O)N[C@H]1CSSC[C@@H](C(N)=O)NC(=O)[C@H](Cc2c[nH]c3ccccc23)NC(=O)[C@H](CCCNC(=N)N)NC(=O)[C@H](Cc2cccc3ccccc23)NC(=O)[C@H](Cc2c[nH]cn2)NC1=O) [CTX-1610]
MC4R selectivity vs MC3R: 0.66

binder: Ac-C[Aib][Cit][dF]RWC-NH2 (disulfide 1-7; SMILES CC(=O)N[C@H]1CSSC[C@@H](C(N)=O)NC(=O)[C@H](Cc2c[nH]c3ccccc23)NC(=O)[C@H](CCCNC(=N)N)NC(=O)[C@@H](Cc2ccccc2)NC(=O)[C@H](CCCNC(N)=O)NC(=O)C(C)(C)NC1=O) [CTX-1633]
MC4R selectivity vs MC3R: 104
